Entries and their activity change, negative = active
# Run Description: fungal cell lysis by compounds – dry powder, set 2, dose response (AID 743403)
# Stated Conditions: Cryptococcus neoformans cell lysis, plate reader; at 35 µM (top of the series)
Numeric answer only, unit % assumed.

Compound Smiles	Measurement Type	Readout Units	Measurement
OCc1nc2ccccc2n1CCOc1ccccc1	activity change, negative = active	%	-9.32
Cc1ccc(C(C)C)c(OCCn2c(CO)nc3ccccc32)c1	activity change, negative = active	%	-20.4
CCCCc1nc2ccccc2n1CCOc1ccccc1	activity change, negative = active	%	0.005
COc1ccc(OCCn2cnc3ccccc32)cc1	activity change, negative = active	%	-22.1
CCSc1nc2ccccc2n1CCOc1ccccc1	activity change, negative = active	%	-22.6

IN: Read the entry `CS(=O)(=O)c1ccc(OCCn2cnc3ccccc32)cc1` and write its reported activity change, negative = active.
OUT: -15.6

IN: Read the entry `c1ccc(-c2ccc(OCCn3cnc4ccccc43)cc2)cc1` and write its reported activity change, negative = active.
OUT: -12.5

IN: Read the entry `Cc1ccc(C(C)C)c(OCCn2c(N)nc3ccccc32)c1` and write its reported activity change, negative = active.
OUT: 69.2

* * *

# Test system: Cryptococcus neoformans cell lysis, plate reader
# Run Description: fungal cell lysis by compounds – dry powder, set 2, dose response (AID 743403)
The source made the active and inactive calls. The rule behind the calls is not given here.
The reply should be one of these categories: active, inactive

Example cases with answers are listed next.
Compound Smiles	Group
c1ccc2c(c1)ncn2CCOc1ccc2c(c1)CCC2	active
COc1ccccc1OCCn1c(SC)nc2ccccc21	inactive
Clc1ccc(OCCn2cnc3ccccc32)cc1	active
CC(C)(C)c1ccc(OCCn2cnc3ccccc32)c(Cl)c1	active
Cc1ccc2c(c1)[nH]c(=S)n2CCOc1ccccc1	active

IN: What did the test return for `CC(C)c1ccccc1OCCn1c(=S)[nH]c2ccccc21` ?
OUT: active

IN: What did the test return for `Clc1ccccc1OCCn1cnc2ccccc21` ?
OUT: active

IN: What did the test return for `Cc1cc2ncn(CCOc3ccccc3C)c2cc1C` ?
OUT: active

IN: What did the test return for `Cc1ccc(C(C)C)c(OCCn2c(=S)[nH]c3ccccc32)c1` ?
OUT: active

IN: What did the test return for `Cc1ccc(OCCn2cnc3cc(C)c(C)cc32)cc1` ?
OUT: active

* * *

# System: Cryptococcus neoformans cell lysis, plate reader
# Run Description: fungal cell lysis by compounds – dry powder, set 2, dose response (AID 743403)
Measurement Type: AC50

Solved cases below.
Compound Smiles	Tested System	AC50
Cc1cc2ncn(CCOc3ccccc3)c2cc1C	Cryptococcus neoformans cell lysis, plate reader	25 µM
CC(C)(C)c1ccc(OCCn2cnc3ccccc32)cc1	Cryptococcus neoformans cell lysis, plate reader	30.5 µM
Cc1ccc(OCCn2cnc3ccccc32)c(C)c1	Cryptococcus neoformans cell lysis, plate reader	7.4 µM
Clc1ccc(OCCn2cnc3ccccc32)c(Cl)c1	Cryptococcus neoformans cell lysis, plate reader	7.76 µM
Cc1cc2ncn(CCOc3ccc4c(c3)CCC4)c2cc1C	Cryptococcus neoformans cell lysis, plate reader	5.59 µM

IN: Read the entry `CC(C)Oc1ccc(OCCn2c(=S)[nH]c3ccccc32)cc1` and write its reported AC50.
OUT: 29.7 µM

IN: Read the entry `Cc1cccc(OCCn2c(=S)[nH]c3ccccc32)c1` and write its reported AC50.
OUT: 19.5 µM

* * *

Entries and their activity change, negative = active
# Run Description: fungal cell lysis by compounds – dry powder, set 2, dose response (AID 743403)
# Stated Conditions: Cryptococcus neoformans cell lysis, plate reader; at 35 µM (top of the series)
Active and inactive are the calls of the source. No rule for the calls is given here.

Solved cases below.
Compound Smiles	activity change, negative = active
S=c1[nH]c2cc(Cl)ccc2n1CCOc1ccccc1	27% (inactive)
O=S(=O)(c1ccc(OCCn2cnc3ccccc32)cc1)N1CCOCC1	-21.8% (inactive)
COc1ccccc1OCCn1c(=S)[nH]c2ccccc21	3.55% (inactive)
CCCc1nc2ccccc2n1CCOc1ccccc1	0.352% (inactive)
Cc1ccc(C(C)C)c(OCCn2c(NC#N)nc3ccccc32)c1	-9.31% (inactive)

IN: Read the entry `COCc1nc2ccccc2n1CCOc1ccc(C(C)(C)C)cc1` and write its reported activity change, negative = active.
OUT: 5.6% (inactive)

IN: Read the entry `CSc1nc2ccccc2n1CCOc1cc(C)ccc1C(C)C` and write its reported activity change, negative = active.
OUT: -4.35% (inactive)

IN: Read the entry `Fc1ccc(OCCn2c(=S)[nH]c3ccccc32)cc1` and write its reported activity change, negative = active.
OUT: -33.3% (inactive)

IN: Read the entry `Cc1cccc(OCCn2c(=S)[nH]c3ccc(C(F)(F)F)cc32)c1` and write its reported activity change, negative = active.
OUT: 4.5% (inactive)

IN: Read the entry `CC(C)c1ccccc1NCCn1c(=S)[nH]c2ccccc21` and write its reported activity change, negative = active.
OUT: 0.673% (inactive)
